system: Vero; assay: Cytotoxicity against african green monkey Vero cells after 72 hrs by MTT assay; format: cell-based; conditions: Chlorocebus sabaeus

compound | IC50
COc1cc2c(cc1OC)C(=O)[C@]1(C2)[C@@H](c2ccc(F)cc2)[C@@H]2CSCN2[C@@]12C(=O)N(N1CCOCC1)c1ccccc12 | > 62.5 mg/L
COc1cc2c(cc1OC)C(=O)[C@]1(C2)[C@@H](c2ccccc2)[C@@H]2CSCN2[C@@]12C(=O)N(N1CCOCC1)c1ccccc12 | > 62.5 mg/L
COc1ccc([C@H]2[C@@H]3CSCN3[C@@]3(C(=O)Nc4ccc(OC(F)(F)F)cc43)[C@@]23Cc2cc(OC)c(OC)cc2C3=O)cc1OC | > 62.5 mg/L
COc1cc2c(cc1OC)C(=O)[C@]1(C2)[C@@H](c2ccccc2Cl)[C@@H]2CSCN2[C@@]12C(=O)N(N1CCOCC1)c1ccccc12 | > 62.5 mg/L
COc1cc2c(cc1OC)C(=O)[C@]1(C2)[C@@H](c2ccc(F)cc2)[C@@H]2CSCN2[C@@]12C(=O)Nc1ccc(OC(F)(F)F)cc12 | > 62.5 mg/L
COc1cc2c(cc1OC)C(=O)[C@]1(C2)[C@@H](c2ccccc2Cl)[C@@H]2CSCN2[C@@]12C(=O)Nc1ccc(OC(F)(F)F)cc12 | > 62.5 mg/L
NNC(=O)c1ccncc1 [ISONIAZID] | > 62.5 mg/L
COc1ccc([C@H]2[C@@H]3CSCN3[C@@]3(C(=O)N(N4CCOCC4)c4ccccc43)[C@@]23Cc2cc(OC)c(OC)cc2C3=O)cc1OC | > 62.5 mg/L
COc1cc2c(cc1OC)C(=O)[C@]1(C2)[C@@H](c2ccccc2)[C@@H]2CSCN2[C@@]12C(=O)Nc1ccc(OC(F)(F)F)cc12 | > 62.5 mg/L
